TARGET_ENTITY: Alpha-2C adrenergic receptor (Homo sapiens) (UniProt P18825)
Sequence (P18825 whole entry, looked up): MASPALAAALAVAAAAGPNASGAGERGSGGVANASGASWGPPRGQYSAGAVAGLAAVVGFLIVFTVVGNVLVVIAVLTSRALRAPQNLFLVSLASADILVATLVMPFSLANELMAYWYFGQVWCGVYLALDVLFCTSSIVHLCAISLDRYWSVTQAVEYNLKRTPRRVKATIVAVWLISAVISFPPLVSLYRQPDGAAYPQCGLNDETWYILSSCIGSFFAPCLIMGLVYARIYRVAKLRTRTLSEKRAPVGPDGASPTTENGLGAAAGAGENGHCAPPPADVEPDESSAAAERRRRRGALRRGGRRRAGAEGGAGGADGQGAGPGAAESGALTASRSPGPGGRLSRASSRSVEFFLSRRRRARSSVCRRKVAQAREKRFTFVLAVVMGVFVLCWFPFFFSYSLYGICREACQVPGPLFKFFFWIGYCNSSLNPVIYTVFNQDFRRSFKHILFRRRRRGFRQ
ASSAY_METHOD_TEXT: compounds altering alpha2C-coupled GIRK flux – cell-based, HEK293 alpha2C/GIRK1/2, thallium flux, primary screen (AID 624);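 note: slope of fluorescence ratio to pre-addition baseline per second over 15 to 24 s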
CONDITION_SET: thallium flux BTC fluorescence, at 10 µM, actives lie on both sides
If the reported slope equals or exceeds 0.005, assign met. If not, assign not met.

>>> print(df.to_string())
                                  compound                             target_entity  answer_label
0  Cc1csc(NC(=O)CCS(=O)(=O)c2ccc(Br)cc2)n1  Alpha-2C adrenergic receptor (Homo sapiens) (UniProt P18825)           met

stdin: Given COc1ccc(C2=CC(=O)OC3(CCCCC3)O2)cc1 , state whether its slope is at least 0.005.
stdout: not met

stdin: Given COc1ccccc1-c1nc(SCc2ccccn2)n[nH]1 , state whether its slope is at least 0.005.
stdout: met

stdin: Given CC(CC(=O)NCc1ccccc1)C1CCCO1 (configuration not stated) , state whether its slope is at least 0.005.
stdout: met

Data origin: PubChem BioAssay
